Data origin, for the record: patent US5795561A

- protocol: Tissue distribution of radioactivity after IV administration in normal (control) rats (Tables 1-4)
- Type: in vivo, female Sprague Dawley rats
- conditionContext: rat, lung, 24 hours after IV, 125I-labelled, N = 4, mean ± standard error, read-out: Radioactivity in lung
- Protocol: Radiolabelled compounds 1-[12-(m-iodophenyl)-dodecyl]-2-methyl-rac-glycero-3-phosphocholine (ET-12IP-OMe; Example 2, compound 18) and 1-[12-(m-iodophenyl)-dodecyl]-propanediol-3-phosphocholine (ET-12IP-OH; Example 3, compound 24) were prepared and administered to two sets of female Sprague Dawley rats: normal rats (control) and rats bearing tumors resulting from Walker 256 sarcoma cells which had been implanted into the thigh. […]
observedProperty: tissue uptake at 24 h (%ID/g)
Response body: numeric value in %ID/g, unit text excluded.

INPUT: # query: tissue uptake at 24 h of entry COC(COCCCCCCCCCCCCc1cccc([125I])c1)COP(=O)([O-])OCC[N+](C)(C)C (racemic) [ET-12IP-OMe]
OUTPUT: 0.218
